# protocol-notes: Acute toxicity by single administration (LD50, Litchfield and Wilcoxon)
# conditions: in vivo, ip, Mouse
endpoint: LD50

(Q) Given the compound CC(SC1(C)OC(=O)c2ccccc2O1)C(=O)NCC(=O)O (stereo not shown) [TF 914] , what is its reported LD50?
(A) > 3000 mg/kg

====

# protocol-notes: Acute toxicity by single administration (LD50, Litchfield and Wilcoxon)
# conditions: in vivo, po, Mouse, os
endpoint: LD50

(Q) Given the entry CC(SC1(C)OC(=O)c2ccccc2O1)C(=O)NCC(=O)O (stereo not shown) , report its measured LD50.
(A) > 3000 mg/kg
